System: Escherichia coli TOP10
assayMethodText: shrunken log2 fold change of peptide-encoding DNA abundance (4.5 h post-induction vs induction); higher = less antimicrobial activity (less host growth inhibition)
details: time post-induction: 4.5 h; library: site-saturation at positions 5, 18, 19, 20
I'd appreciate it if you could supply shrunken log2 fold change values for the items below.

Here is how some sequences turned out for shrunken log2 fold change.
1) RRIRTRPPRLPRPRPRPWFPPRP; -0.735
2) RRIRQRPPRLPRPRPRPRTNPRP; 0.158
3) RRIRARPPRLPRPRPRPYHLPRP; -0.0107
4) RRIRRRPPRLPRPRPRPPRRPRP; 1.34
5) RRIRWRPPRLPRPRPRPRMVPRP; 0.155

// each sequence listed below needs its shrunken log2 fold change
1. RRIRNRPPRLPRPRPRPLVDPRP
2. RRIRARPPRLPRPRPRPTFSPRP
3. RRIRLRPPRLPRPRPRPSPEPRP
4. RRIRYRPPRLPRPRPRPDIIPRP

0.0463
0.233
0.00229
-0.609

I need shrunken log2 fold change for every entry listed below, if you could help.
1. RRIRARPPRLPRPRPRPHKIPRP
2. RRIRSRPPRLPRPRPRPAPGPRP
3. RRIRERPPRLPRPRPRPRELPRP
4. RRIRMRPPRLPRPRPRPSKWPRP
5. RRIRVRPPRLPRPRPRPPDVPRP
6. RRIRIRPPRLPRPRPRPRRNPRP
7. RRIRSRPPRLPRPRPRPVIAPRP
8. RRIRDRPPRLPRPRPRPDADPRP

1. -0.0893
2. 0.54
3. 0.569
4. -0.104
5. -0.286
6. -0.0717
7. 0.053
8. 0.0193

###

System: Escherichia coli TOP10;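 note: peptides expressed intracellularly from a pBAD plasmid library in pooled LB shake-flask culture, induced with 0.3% L-arabinose, DNA abundance read by NGS, three biological replicates, DESeq2 with apeglm shrinkage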
assayMethodText: shrunken log2 fold change of peptide-encoding DNA abundance (4.5 h post-induction vs induction); higher = less antimicrobial activity (less host growth inhibition)
details: time post-induction: 4.5 h; library: site-saturation at positions 5, 18, 19, 20
measure: shrunken log2 fold change
Numbers only.

Lab note: each sequence below needs its shrunken log2 fold change filled in.
1. RRIRFRPPRLPRPRPRPKRIPRP
2. RRIRIRPPRLPRPRPRPHPSPRP
3. RRIRLRPPRLPRPRPRPYVFPRP

-0.442
-0.488
-0.515

Respectfully, I request shrunken log2 fold change for each entry included below.
1. RRIRVRPPRLPRPRPRPEGTPRP
2. RRIRLRPPRLPRPRPRPMWEPRP
3. RRIRGRPPRLPRPRPRPSHTPRP
4. RRIRGRPPRLPRPRPRPSCTPRP
5. RRIRWRPPRLPRPRPRPDQRPRP
6. RRIRTRPPRLPRPRPRPMFAPRP
7. RRIRSRPPRLPRPRPRPSIVPRP

1. -0.00568
2. 0.00629
3. -0.102
4. 0.565
5. 0.098
6. -0.0818
7. -0.525

For every listed record, write down its shrunken log2 fold change.
1. RRIRDRPPRLPRPRPRPCGEPRP
2. RRIRLRPPRLPRPRPRPRHYPRP
3. RRIRVRPPRLPRPRPRPHPFPRP
4. RRIRSRPPRLPRPRPRPYFTPRP
5. RRIRHRPPRLPRPRPRPVWWPRP

1: 0.488; 2: -0.127; 3: -0.0878; 4: 1.09; 5: 0.174

// batch mode: one shrunken log2 fold change value per listed entry
1. RRIRLRPPRLPRPRPRPKAGPRP
2. RRIRLRPPRLPRPRPRPFLNPRP
3. RRIRDRPPRLPRPRPRPMIIPRP
4. RRIRNRPPRLPRPRPRPHCHPRP
5. RRIRRRPPRLPRPRPRPKHIPRP
6. RRIRPRPPRLPRPRPRPMPEPRP

[0.221, -0.172, 0.248, -0.398, 0.0894, -0.0242]
